# tgt: human Retinoid X Receptor beta (RXRb), RXRB (gene 6257)
# assay_details: ATG_RXRb_TRANS: Attagene TRANS-FACTORIAL HepG2 Assay for human Retinoid X Receptor beta (RXRb) (AID 2283013)
Inconclusive results are not listed. Calls of active or inactive are those of the source. The calls were made as follows: active = hit-call score of the fitted dose curve at least 0.9, where 1 is the maximum; inconclusive = response in the unintended direction; inactive = score below 0.9.
Labels: active, inactive

{"columns": ["compound", "label"],
 "data": [
  ["N#[N+]c1ccc2c(S(=O)(=O)[O-])cccc2c1O", "inactive"],
  ["C=CC(=O)OCCOC(=O)C=C", "inactive"],
  ["CCc1c(C(=O)O)c(=O)cnn1-c1ccc(Cl)cc1", "inactive"],
  ["c1ccc(CCCc2ccncc2)cc1", "inactive"],
  ["CC(C)CCCCCOC(=O)CCS", "inactive"],
  ["CC(C)(C)C(=O)CCc1ccc(Cl)cc1", "inactive"],
  ["Cc1ccc(C(C)(C)C)cc1", "inactive"],
  ["CCOC(=O)c1ccc(N(C)C)cc1", "inactive"],
  ["O=C(O)CCCCCCCCCC(=O)O", "inactive"],
  ["C=CC(C)(CCC=C(C)C)OC(=O)C(C)C (stereo not given)", "active"],
  ["CC(C)(C)C(=O)C=Cc1ccc(Cl)cc1", "active"],
  ["CCOCC(=O)O", "inactive"],
  ["CCCCCCCCC(=O)OCC", "inactive"],
  ["COC(=O)c1c(C)cc(O)c(C)c1O", "inactive"],
  ["O=S(=O)(Oc1ccc(Cl)cc1Cl)c1ccccc1", "inactive"]
]}
